molecular target: WT STING (Homo sapiens, UniProt Q86WV6, H232R); assay: Differential Scanning Fluorimetry with WT STING; assay type: binding; set-up: truncated human WT STING or AQ STING (amino acid residues 140-343); 8xHis (N, cleaved yes); SUMO (N, cleaved yes); made in house; host or cells: E. coli Rosetta-gami B (DE3); conditions: thermal shift, truncated human WT STING 0.1 mg/ml, 150 μM CDN; read-out: DSF ΔTm WT STING
Sequence (Q86WV6 140-343 H232R): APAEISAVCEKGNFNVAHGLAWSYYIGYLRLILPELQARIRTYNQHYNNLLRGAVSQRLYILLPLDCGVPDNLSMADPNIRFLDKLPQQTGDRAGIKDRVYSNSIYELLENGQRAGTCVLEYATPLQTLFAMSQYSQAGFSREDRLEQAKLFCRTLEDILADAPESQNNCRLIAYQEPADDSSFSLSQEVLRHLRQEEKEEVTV
Each item that follows carries a reported ΔTm at 150 µM.
PROPERTY_NAME: ΔTm at 150 µM (°C)

# MOLECULE, TEST_TARGET, RESULT_NUMBER
measured = [
    ("Nc1nc2c(ncn2[C@@H]2O[C@@H]3COP(=O)(O)OC4C(O)[C@H](n5cnc6c(N)ncnc65)O[C@@H]4COP(=O)(O)COC3C2F)c(=O)[nH]1 (some centres unmarked)", "WT STING (Homo sapiens, UniProt Q86WV6, H232R)", 7.3),
    ("Nc1nc2c(ncn2[C@@H]2O[C@@H]3COP(=O)(O)COC4C(F)[C@H](n5cnc6c(N)ncnc65)O[C@@H]4COP(=O)(O)OC3C2F)c(=O)[nH]1 (some centres unmarked)", "WT STING (Homo sapiens, UniProt Q86WV6, H232R)", 10.7),
    ("Nc1nc2c(ncn2[C@@H]2O[C@@H]3COP(=O)(O)OC4C(F)[C@H](n5cnc6c(N)ncnc65)O[C@@H]4COP(=O)(O)COC3C2O)c(=O)[nH]1 (some centres unmarked)", "WT STING (Homo sapiens, UniProt Q86WV6, H232R)", 4.8),
    ("Nc1nc2c(ncn2[C@@H]2O[C@@H]3COP(=O)(O)OC4C(F)[C@H](n5cnc6c(=O)[nH]c(N)nc65)O[C@@H]4COP(=O)(O)COC3C2F)c(=O)[nH]1 (some centres unmarked)", "WT STING (Homo sapiens, UniProt Q86WV6, H232R)", 3.1),
    ("Nc1nc2c(ncn2[C@@H]2O[C@@H]3COP(=O)(O)COC4C(O)[C@H](n5cnc6c(N)ncnc65)O[C@@H]4COP(=O)(O)OC3C2O)c(=O)[nH]1 (some centres unmarked)", "WT STING (Homo sapiens, UniProt Q86WV6, H232R)", 0),
]

---

Each item that follows carries a reported EC50.
molecular target: WT STING (Homo sapiens, UniProt Q86WV6, H232R); assay: Digitonin assay using 293T wtSTING-FL reporter cells; conditions: 293T wtSTING-FL cells, ISRE firefly luciferase reporter, digitonin buffer 30 minutes, then 5 hours
Sequence (Q86WV6 whole entry H232R, the tested form may be a part): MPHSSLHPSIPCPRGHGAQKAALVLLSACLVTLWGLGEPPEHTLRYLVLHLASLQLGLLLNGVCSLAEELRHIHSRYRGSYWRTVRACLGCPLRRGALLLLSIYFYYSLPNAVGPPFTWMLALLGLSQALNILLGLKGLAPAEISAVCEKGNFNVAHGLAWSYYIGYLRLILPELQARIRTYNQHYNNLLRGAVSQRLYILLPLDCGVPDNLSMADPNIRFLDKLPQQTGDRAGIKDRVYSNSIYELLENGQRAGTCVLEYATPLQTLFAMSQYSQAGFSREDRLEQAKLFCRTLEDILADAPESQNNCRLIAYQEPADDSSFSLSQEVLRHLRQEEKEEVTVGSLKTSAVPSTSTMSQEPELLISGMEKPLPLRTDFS
PROPERTY_NAME: EC50 (nM)

# MOLECULE, VALUE_QUALIFIER, RESULT_NUMBER
records = [
    ("Nc1nc2c(ncn2[C@@H]2O[C@@H]3COP(=O)(O)O[C@@H]4[C@H](O)[C@@H](COP(=O)(O)O[C@@H]2[C@@H]3O)O[C@H]4n2cnc3c(N)ncnc32)c(=O)[nH]1 [2′2′-cGAMP, reference compound]", "=", 30),
    ("Nc1nc2c(ncn2[C@H]2CC3OCP(=O)(O)OC[C@H]4O[C@@H](n5cnc6c(N)ncnc65)C(F)C4OP(=O)(O)OC[C@H]3O2)c(=O)[nH]1 (some centres unmarked) [Example 14]", "=", 90),
    ("Nc1ncnc2c1ncn2[C@@H]1O[C@@H]2COP(=O)(O)OC3C(F)[C@H](n4cnc5c(N)ncnc54)O[C@@H]3COP(=O)(O)COC2C1F (some centres unmarked) [Example 13]", "=", 12),
    ("Nc1nc2c(ncn2[C@@H]2O[C@@H]3COP(=O)(O)COC4C(F)[C@H](n5cnc6c(N)ncnc65)O[C@@H]4COP(=O)(O)OC3C2O)c(=O)[nH]1 (some centres unmarked) [Example 7]", "=", 30),
    ("Nc1nc2c(ncn2[C@@H]2O[C@@H]3COP(=O)(O)OC4C(O)[C@H](n5cnc6c(N)ncnc65)O[C@@H]4COP(=O)(O)COC3C2F)c(=O)[nH]1 (some centres unmarked) [Example 11]", "=", 50),
    ("Nc1ncnc2c1ncn2[C@@H]1O[C@@H]2COP(=O)(O)COC3C(O)[C@H](n4cnc5c(N)ncnc54)O[C@@H]3COP(=O)(O)COC2C1O (some centres unmarked) [Example 9]", ">", 100000),
    ("Nc1ncnc2c1ncn2[C@@H]1O[C@@H]2COP(=O)(O)COC3C(O)[C@H](n4cnc5c(N)ncnc54)O[C@@H]3COP(=O)(O)COC2C1O (some centres unmarked) [Example 10]", ">", 100000),
    ("Nc1ncnc2c1ncn2[C@@H]1O[C@@H]2COP(=O)(O)O[C@H]3[C@@H](O)[C@H](n4cnc5c(N)ncnc54)O[C@@H]3COP(=O)(O)O[C@H]2[C@H]1O [3′3′-c-di-AMP, reference compound]", "=", 300),
    ("Nc1nc2c(ncn2[C@@H]2O[C@@H]3COP(=O)(O)OC4C(F)[C@H](n5cnc6c(N)ncnc65)O[C@@H]4COP(=O)(O)COC3C2O)c(=O)[nH]1 (some centres unmarked) [Example 4]", "=", 50),
    ("Nc1nc2c(ncn2[C@@H]2O[C@@H]3COP(=O)(O)O[C@H]4[C@@H](O)[C@H](n5cnc6c(=O)[nH]c(N)nc65)O[C@@H]4COP(=O)(O)O[C@H]3[C@H]2O)c(=O)[nH]1 [3′3′-c-di-GMP, reference compound]", "=", 5800),
    ("Nc1nc2c(ncn2[C@@H]2O[C@@H]3COP(=O)(O)COC4C(O)[C@H](n5cnc6c(N)ncnc65)O[C@@H]4COP(=O)(O)OC3C2O)c(=O)[nH]1 (some centres unmarked) [Example 3]", "=", 12500),
]

The origin of these recorded values is patent US11292812B2.
